- measured.on: IDO (Homo sapiens, UniProt P14902)
- Sequence (P14902 whole entry): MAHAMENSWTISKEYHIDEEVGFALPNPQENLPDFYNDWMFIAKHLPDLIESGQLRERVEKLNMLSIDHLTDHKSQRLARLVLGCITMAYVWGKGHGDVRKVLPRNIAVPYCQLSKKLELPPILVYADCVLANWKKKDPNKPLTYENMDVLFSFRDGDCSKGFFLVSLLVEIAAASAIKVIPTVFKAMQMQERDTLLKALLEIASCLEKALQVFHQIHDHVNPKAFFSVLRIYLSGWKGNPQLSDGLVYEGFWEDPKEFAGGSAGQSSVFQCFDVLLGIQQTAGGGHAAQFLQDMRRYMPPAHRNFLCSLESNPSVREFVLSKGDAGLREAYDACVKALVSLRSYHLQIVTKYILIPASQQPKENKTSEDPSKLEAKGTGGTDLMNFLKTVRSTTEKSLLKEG
- protocol: IDO activity in HEK 293 cells expressing IDO (kynurenine, spectrophotometric)
- assay.setup: kynurenine readout, 10-dose threefold dilutions
pIC50: −log10 of the molar value.
recorded.endpoint: pIC50

Quick check: pIC50 on IDO (Homo sapiens, UniProt P14902), item CC1(C)C=CC2=C(O1)C(=O)c1ccccc1C2=O [DAL, dehydro-alpha-lapachone] ? ~6.52

Attribution: patent US20140161720A1
